# experimental-system: T1, G9a and GLP (Homo sapiens, UniProt Q96KQ7+Q9H9B1)
# T1 sequence (Q96KQ7 2-1210 limits assumed): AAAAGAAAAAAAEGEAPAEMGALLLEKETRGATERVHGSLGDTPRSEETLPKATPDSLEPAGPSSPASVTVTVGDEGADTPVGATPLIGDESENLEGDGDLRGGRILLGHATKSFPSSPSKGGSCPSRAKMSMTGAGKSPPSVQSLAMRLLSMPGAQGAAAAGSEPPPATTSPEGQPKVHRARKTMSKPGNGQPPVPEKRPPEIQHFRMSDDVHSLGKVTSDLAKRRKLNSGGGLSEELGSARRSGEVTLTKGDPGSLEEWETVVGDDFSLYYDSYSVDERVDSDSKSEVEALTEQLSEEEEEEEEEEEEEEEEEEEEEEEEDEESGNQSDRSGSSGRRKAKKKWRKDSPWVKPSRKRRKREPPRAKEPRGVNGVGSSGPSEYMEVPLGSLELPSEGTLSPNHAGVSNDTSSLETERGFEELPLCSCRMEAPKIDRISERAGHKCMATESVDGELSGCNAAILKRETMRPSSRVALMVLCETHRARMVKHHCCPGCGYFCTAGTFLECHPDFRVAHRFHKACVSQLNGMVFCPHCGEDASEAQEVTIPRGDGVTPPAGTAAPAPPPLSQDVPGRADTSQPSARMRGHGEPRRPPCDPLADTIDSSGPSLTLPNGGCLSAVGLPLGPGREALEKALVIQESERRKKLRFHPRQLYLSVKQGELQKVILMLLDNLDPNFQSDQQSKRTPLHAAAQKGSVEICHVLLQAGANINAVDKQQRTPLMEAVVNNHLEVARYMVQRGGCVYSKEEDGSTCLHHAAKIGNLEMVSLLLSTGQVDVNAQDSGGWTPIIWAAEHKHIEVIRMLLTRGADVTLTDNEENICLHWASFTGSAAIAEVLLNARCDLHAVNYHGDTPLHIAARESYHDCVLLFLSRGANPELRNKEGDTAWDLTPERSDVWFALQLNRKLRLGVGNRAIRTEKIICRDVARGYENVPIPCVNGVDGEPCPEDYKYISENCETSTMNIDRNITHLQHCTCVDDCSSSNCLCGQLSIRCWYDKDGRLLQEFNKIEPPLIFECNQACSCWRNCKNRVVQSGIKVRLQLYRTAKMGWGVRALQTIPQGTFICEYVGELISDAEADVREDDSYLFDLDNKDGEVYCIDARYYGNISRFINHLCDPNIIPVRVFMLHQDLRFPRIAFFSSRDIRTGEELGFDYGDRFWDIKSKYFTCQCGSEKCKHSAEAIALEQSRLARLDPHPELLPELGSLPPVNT
# T1 sequence (Q9H9B1 2-1298 limits assumed): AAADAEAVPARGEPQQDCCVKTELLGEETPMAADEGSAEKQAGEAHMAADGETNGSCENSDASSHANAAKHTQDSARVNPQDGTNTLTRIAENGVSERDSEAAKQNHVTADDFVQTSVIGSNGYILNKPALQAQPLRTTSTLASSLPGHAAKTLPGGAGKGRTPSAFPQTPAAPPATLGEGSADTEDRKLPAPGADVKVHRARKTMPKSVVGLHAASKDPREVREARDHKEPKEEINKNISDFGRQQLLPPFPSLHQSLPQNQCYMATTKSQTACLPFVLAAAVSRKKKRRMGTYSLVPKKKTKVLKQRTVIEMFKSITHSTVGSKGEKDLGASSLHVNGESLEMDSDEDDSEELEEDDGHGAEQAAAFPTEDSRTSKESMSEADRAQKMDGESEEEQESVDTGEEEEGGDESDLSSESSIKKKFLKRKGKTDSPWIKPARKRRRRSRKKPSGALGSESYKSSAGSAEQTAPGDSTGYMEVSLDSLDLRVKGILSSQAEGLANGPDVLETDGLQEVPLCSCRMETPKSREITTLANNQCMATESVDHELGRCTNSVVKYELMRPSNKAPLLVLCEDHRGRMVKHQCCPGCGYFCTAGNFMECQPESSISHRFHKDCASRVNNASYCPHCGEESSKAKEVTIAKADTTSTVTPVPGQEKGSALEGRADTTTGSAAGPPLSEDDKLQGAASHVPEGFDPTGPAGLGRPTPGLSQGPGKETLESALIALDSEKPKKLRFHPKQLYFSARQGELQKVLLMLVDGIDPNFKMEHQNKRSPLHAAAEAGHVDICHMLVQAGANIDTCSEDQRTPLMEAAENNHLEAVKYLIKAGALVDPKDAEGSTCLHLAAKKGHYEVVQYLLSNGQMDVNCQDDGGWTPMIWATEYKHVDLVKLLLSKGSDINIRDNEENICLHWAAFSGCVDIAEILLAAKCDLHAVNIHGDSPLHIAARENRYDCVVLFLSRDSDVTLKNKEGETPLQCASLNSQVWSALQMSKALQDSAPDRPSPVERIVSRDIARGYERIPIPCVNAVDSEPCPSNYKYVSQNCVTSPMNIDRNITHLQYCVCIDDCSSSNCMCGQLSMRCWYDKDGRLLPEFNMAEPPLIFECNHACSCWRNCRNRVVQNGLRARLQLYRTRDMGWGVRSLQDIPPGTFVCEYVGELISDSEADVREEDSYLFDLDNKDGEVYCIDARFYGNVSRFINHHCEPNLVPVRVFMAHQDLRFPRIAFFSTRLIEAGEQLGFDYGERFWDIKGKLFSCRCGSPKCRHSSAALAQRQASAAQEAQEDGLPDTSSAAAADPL
# experiment: Triple SILAC pull-down after UNC0638 treatment of 293T cells, DMSO/UNC0638 ratio of protein captured by 3×MBT;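 also: mass spectrometry (Q-Exactive) SILAC quantitation, DMSO/UNC0638 ratio computed after subtracting 3×MBTD355N mutant pull-down background, only proteins with at least twofold 3×MBT over mutant signal considered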
# Format: cell-based
# Design: cells were treated for 24 hours with UNC0638 at 2.5 μM or DMSO vehicle control; endogenous in cells; host or cells: HEK 293T
# stated-conditions: SILAC ratio DMSO relative to UNC0638, pull-down with 3xMBT; UNC0638 in heavy SILAC media; all values in log base 2
Give Relative to UNC0638 UNC Heavy for every item shown.
Field: numeric (log base 2). Do not append units.

query: Quick one: give measured Relative to UNC0638 UNC Heavy for NOSIP (protein, UniProt Q9Y314 1-301, looked up) Nitric oxide …: MTRHGKNCTAGAVYTYHEKKKDTAASGYGTQNIRLSRDAVKDFDCCCLSLQPCHDPVVTPDGYLYEREAILEYILHQKKEIARQMKAYEKQRGTRREEQKELQRAASQDHVRGFLEKESAIVSRPLNPFTAKALSGTSPDDVQPGPSVGPPSKDKDKVLPSFWIPSLTPEAKATKLEKPSRTVTCPMSGKPLRMSDLTPVHFTPLDSSVDRVGLITRSERYVCAVTRDSLSNATPCAVLRPSGAVVTLECVEKLIRKDMVDPVTGDKLTDRDIIVLQRGGTGFAGSGVKLQAEKSRPVMQA
result: 0.03

query: Quick one: give measured Relative to UNC0638 UNC Heavy for DUSP3 (protein, UniProt P51452 1-185, looked up) Dual specificity protein …: MSGSFELSVQDLNDLLSDGSGCYSLPSQPCNEVTPRIYVGNASVAQDIPKLQKLGITHVLNAAEGRSFMHVNTNANFYKDSGITYLGIKANDTQEFNLSAYFERAADFIDQALAQKNGRVLVHCREGYSRSPTLVIAYLMMRQKMDVKSALSIVRQNREIGPNDGFLAQLCQLNDRLAKEGKLKP
result: 0.47

query: Quick one: give measured Relative to UNC0638 UNC Heavy for ZRANB2 (protein, UniProt O95218 1-330, looked up) Zinc finger Ran-binding …: MSTKNFRVSDGDWICPDKKCGNVNFARRTSCNRCGREKTTEAKMMKAGGTEIGKTLAEKSRGLFSANDWQCKTCSNVNWARRSECNMCNTPKYAKLEERTGYGGGFNERENVEYIEREESDGEYDEFGRKKKKYRGKAVGPASILKEVEDKESEGEEEDEDEDLSKYKLDEDEDEDDADLSKYNLDASEEEDSNKKKSNRRSRSKSRSSHSRSSSRSSSPSSSRSRSRSRSRSSSSSQSRSRSSSRERSRSRGSKSRSSSRSHRGSSSPRKRSYSSSSSSPERNRKRSRSRSSSSGDRKKRRTRSRSPERRHRSSSGSSHSGSRSSSKKK
result: −0.09

query: Quick one: give measured Relative to UNC0638 UNC Heavy for EEF1B2 (protein, UniProt P24534 2-225, looked up) Elongation factor 1-beta: GFGDLKSPAGLQVLNDYLADKSYIEGYVPSQADVAVFEAVSSPPPADLCHALRWYNHIKSYEKEKASLPGVKKALGKYGPADVEDTTGSGATDSKDDDDIDLFGSDDEEESEEAKRLREERLAQYESKKAKKPALVAKSSILLDVKPWDDETDMAKLEECVRSIQADGLVWGSSKLVPVGYGIKKLQIQCVVEDDKVGTDMLEEQITAFEDYVQSMDVAAFNKI
result: 0.01
